Entries and their self-cleavage kobs at 40 uM GlcN6P
B1: glmS ribozyme (parent)
chain: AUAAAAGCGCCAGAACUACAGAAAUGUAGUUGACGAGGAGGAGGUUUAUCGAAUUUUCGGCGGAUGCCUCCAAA

Variants of: B1
Assay: self-cleavage kobs at 40 uM GlcN6P; higher = faster cleavage; RNA array
Settings: with glucosamine-6-phosphate
Fewer inactive variants are shown than the library holds.

Example variants with recorded self-cleavage kobs at 40 uM GlcN6P:
Please give the measured self-cleavage kobs at 40 uM GlcN6P for this variant: U54C C68A < 1e-05 s⁻¹

What self-cleavage kobs at 40 uM GlcN6P value was documented for this variant, A48G G63A ? < 1e-05 s⁻¹

Recorded self-cleavage kobs at 40 uM GlcN6P of G7U A53G U69G , please. 8.14e-05 s⁻¹

So what does the record say about self-cleavage kobs at 40 uM GlcN6P for C8U A52G G63U ? < 1e-05 s⁻¹

---
Would you mind telling me what self-cleavage kobs at 40 uM GlcN6P value was observed for G38C U47A ? < 1e-05 s⁻¹

Requested field: self-cleavage kobs at 40 uM GlcN6P. Item: C34A U65A < 1e-05 s⁻¹

Need self-cleavage kobs at 40 uM GlcN6P, item C34A C50G C71U 6.66e-05 s⁻¹

So what's the measured self-cleavage kobs at 40 uM GlcN6P for this one? C8G G13U < 1e-05 s⁻¹

State the recorded self-cleavage kobs at 40 uM GlcN6P for this entry: A53U U54C C67A 0.000138 s⁻¹

Returns the measured self-cleavage kobs at 40 uM GlcN6P for the input variant. Input: A6C C68G < 1e-05 s⁻¹

Report self-cleavage kobs at 40 uM GlcN6P for A39C C50G U55C please. < 1e-05 s⁻¹

Which self-cleavage kobs at 40 uM GlcN6P value belongs to A53U C70A ? 4.52e-05 s⁻¹

Request the reported self-cleavage kobs at 40 uM GlcN6P associated with C50U G51A < 1e-05 s⁻¹

Given U30G U54A , state its recorded self-cleavage kobs at 40 uM GlcN6P. 0.000247 s⁻¹
